target: human GABAA α2β2γ1 receptor (Homo sapiens (Human), UniProt P47869+Q8N1C3); assay: Radioligand binding assay, competition for [3H]RO7239181, γ1-containing GABAA subtype α2β2γ1; conditions: Table 2; membranes of HEK293F cells, [3H]RO7239181; read-out: Ki h-GABAA α2β2γ1
Reported values of Ki for individual entries
The response must be a number in nM with no trailing unit.

INSERT INTO measurements (substance_smiles, unit_info, measured_value) VALUES
  ('C[C@@H]1N=C(c2c(F)cccc2F)c2c(ccc(C(F)(F)F)c2Cl)-n2cc(C(=O)NC3CC3)c(=O)nc21', 'nM', 33),
  ('CCOCCc1cn2c(nc1=O)CN=C(c1c(F)cccc1F)c1c-2ccc(C(F)(F)F)c1Cl', 'nM', 75),
  ('C[C@@H]1N=C(c2c(F)cccc2F)c2c(ccc(C(F)(F)F)c2Cl)-n2cc(CO)c(=O)nc21', 'nM', 44.6);

# next molecule below
What value of Ki has been reported for the following molecule? `CCOCCc1cn2c(nc1=O)[C@H](C)N=C(c1c(F)cccc1F)c1c-2ccc(Cl)c1Cl`
23.3
